system: HEK-293T; assay: Multiplex assay against HEK293T; type: toxicity, cell-based; conditions: human, 48 h, 1 µM, compound concentration 1 uM, replicate 1
Observable: Population Hoechst High Intensity Objects (%)

>  <Compound>
CC[C@@H](C)Nc1nc(C)nc2c(-c3ccc(OC)nc3C)c(C)nn12 [PEXACERFONT]

>  <Test Target>
HEK-293T

>  <Quantitative Result>
2

$$$$
>  <Compound>
Cc1cccc(NC(=O)CN2CCC(c3ccccn3)CC2)c1.Cl.Cl

>  <Test Target>
HEK-293T

>  <Quantitative Result>
2

$$$$
>  <Compound>
Cc1onc(-c2ccccc2Cl)c1C(=O)N(C)c1ccc(Cl)cc1

>  <Test Target>
HEK-293T

>  <Quantitative Result>
2

$$$$
>  <Compound>
Cl.N=C(N)NC(=O)Cc1c(Cl)cccc1Cl [GUANFACINE HYDROCHLORIDE]

>  <Test Target>
HEK-293T

>  <Quantitative Result>
2

$$$$
>  <Compound>
CCCOc1ccc2[nH]cc(C3=CCNCC3)c2n1.Cl

>  <Test Target>
HEK-293T

>  <Quantitative Result>
2

$$$$
>  <Compound>
CCCCC(=O)N(Cc1ccc(-c2ccccc2-c2nnn[nH]2)cc1)[C@H](C(=O)O)C(C)C

>  <Test Target>
HEK-293T

>  <Quantitative Result>
2

$$$$
>  <Compound>
COC[C@@H](c1ccc(C(F)(F)F)cc1)N1CCN(C2(C)CCN(C(=O)c3c(C)ncnc3C)CC2)C[C@@H]1C.O=C(O)/C=C\C(=O)O [VICRIVIROC MALEATE]

>  <Test Target>
HEK-293T

>  <Quantitative Result>
2

$$$$
>  <Compound>
COc1cccc2c1c(NS(=O)(=O)c1ccc(Cl)s1)nn2Cc1cccc(CNC(=O)C(C)(C)O)c1

>  <Test Target>
HEK-293T

>  <Quantitative Result>
2

$$$$
>  <Compound>
COc1ccccc1N1CCN(C[C@@H](C(=O)NC(C)(C)C)c2ccccc2)CC1.Cl.Cl

>  <Test Target>
HEK-293T

>  <Quantitative Result>
2

$$$$
>  <Compound>
Cc1sc2c(c1C)C(c1ccc(Cl)cc1)=N[C@@H](CC(=O)NCCCCCCCCNC(=O)COc1cccc3c1C(=O)N(C1CCC(=O)NC1=O)C3=O)c1nnc(C)n1-2 (stereo not given in full)

>  <Test Target>
HEK-293T

>  <Quantitative Result>
2

$$$$
